# Tested on: guanosine
# assay info: Reversibility of kethoxal derivatives using GTP for competition (LCMS of free guanosine)
# Assay type: physicochemical
# study conditions: pH = 7.0, 24 h; 1:1 ratio; excess GTP competitor
So basically: is Conversion of guanosine under competition condition under 30%? Then y. Not under? Then n.

| compound | classification |
| --- | --- |
| [N-]=[N+]=NCCOCCC(=O)C=O [drawing 87] | y |

*Q* Confirm or reject: Conversion of guanosine under competition condition of [N-]=[N+]=NCCCC(=O)C=O [drawing 85] lies strictly below 30%
*A* y

*Q* Problem: For the compound CC(OC(=O)CN=[N+]=[N-])C(=O)C=O (centres unmarked) [drawing 80] , is Conversion of guanosine under competition condition under 30%?
*A* n

*Q* Report whether reported Conversion of guanosine under competition condition is lower than 30% (strictly) for CC(Br)C(=O)C=O (centres unmarked) [drawing 82]
*A* y

*Q* Report whether reported Conversion of guanosine under competition condition is lower than 30% (strictly) for CC(OCCN=[N+]=[N-])C(=O)C=O (centres unmarked) [drawing 77]
*A* y
